# Assay method text: Biodistribution of 18F-labeled SST2 ligands in AR42J tumor-bearing mice
# Type: in vivo
# Particulars: female, CD1 nu/nu, mouse, liver, iv, total radioactivity, Blocking study, 1 h post injection; read-out: Liver % ID/g ± SD
Value type: tissue uptake at 1 h

INPUT: Quick one: tissue uptake at 1 h of C[C@@H](O)[C@H](NC(=O)C1CSSCC(NC(=O)C(Cc2ccccc2)NC(=O)CNC(=O)CNC(=O)[C@@H](CC(=O)O)NC(=O)C(CC(=O)O)NC(=O)[C@@H](CNC(=O)CN2CCN(CC(=O)O)CCN(CC(=O)O)CCN(CC(=O)O)CC2)NC(=O)C[N+](C)(C)Cc2ccc([Si](F)(C(C)(C)C)C(C)(C)C)cc2)C(=O)N[C@@H](Cc2ccc(O)cc2)C(=O)NC(Cc2c[nH]c3ccccc23)C(=O)N[C@@H](CCCCN)C(=O)N[C@@H]([C@@H](C)O)C(=O)N1)C(=O)O (stereo partly shown) (natGa complex, metal not drawn) [[Ga]24] ?
OUTPUT: 1.82 %ID/g
